Experiment: solvent given as SMILES
Details: in ClCCl
QUANTITY_NAME: absorption maximum (nm)
Enter your answer as a number in nm; do not include the unit.

Problem: Request the reported absorption maximum associated with `c1ccc(-n2nc(-c3ccc(-c4ccc5c(c4)C(c4ccccc4)(c4ccccc4)c4ccccc4-5)cc3)nc2-c2ccccn2)cc1`
Solution: 323

Problem: Request the reported absorption maximum associated with `O=C(NCc1ccccc1)c1sc(-c2ccc(-c3cc(C4CC4)c(C(=O)NCc4ccccc4)s3)s2)cc1C1CC1`
Solution: 393

Problem: Request the reported absorption maximum associated with `CCOC(=O)c1c(-c2cc3ccccc3oc2=O)nn(-c2ccc(OC)cc2)c1C(=O)OCC`
Solution: 323

Problem: Request the reported absorption maximum associated with `O=C1Nc2ccccc2/C1=C/C(=O)c1ccc([N+](=O)[O-])cc1`
Solution: 344

Problem: Request the reported absorption maximum associated with `COc1ccc(-c2csc(/C(C#N)=C/c3ccc(C#N)cc3)n2)cc1`
Solution: 396
